METHOD SUMMARY: Solubility of saturated solutions in distilled water, gravimetric
MEASUREMENT CONDITIONS: distilled water at room temperature, saturated solution
Rule: Yes for solubility not less than 10 mg/mL, No for anything less.

- COMPOUND: "C[C@H]1CCC/C=C/[C@@H]2C[C@H](O)C[C@H]2[C@H](O)[C@@H](SC[C@H](N)C(=O)O)CC(=O)O1 [Compound 11]"
  GROUP: "Yes"
- COMPOUND: "CC1CCCC=CC2CC(O)CC2C(O)[C@H](CC(=O)O)CC(=O)O1 (some centres unmarked) [Compound 6]"
  GROUP: "Yes"

Identify whether the reported solubility of the following compound is 10 mg/mL or greater: C[C@H]1CCC/C=C/[C@@H]2C[C@H](O)C[C@H]2[C@H](O)/C=C/C(=O)O1 [Compound 1, Brefeldin A]
No

# bool: solubility of CC1CCCC=CC2CC(O)CC2C(O)C(SCCO)CC(=O)O1 (centres unmarked) [Compound 5] >= 10 mg/mL
Yes
